Target: T1, succinyl-L-alanyl-L-alanyl-L-prolyl-L-phenylalanyl-p-nitroanilide
T1 sequence (peptide, N-terminal succinyl; C-terminal p-nitroanilide): AAPF
Reported endpoint: kcat · Km^-1 (M⁻¹ s⁻¹)
Give bare numbers, in M⁻¹ s⁻¹.

1) BLAP mutant F11 (S3T + R99S + A188P + V193M + V199I) (enzyme) AQTVPWGISRVQAPAAHNRGLTGSGVKVAVLDTGISTHPDLNIRGGASFVPGEPSTQDGNGHGTHVAGTIAALNNSIGVLGVAPSAELYAVKVLGADGSGAISSIAQGLEWAGNNGMHVANLSLGSPSPSATLEQAVNSATSRGVLVVAASGNSGASSISYPARYANAMAVGATDQNNNRASFSQYGPGLDIMAPGVNIQSTYPGSTYASLNGTSMATPHVAGAAALVKQKNPSWSNVQIRNHLKNTATSLGSTNLYGSGLVNAEAATR
92000

The reported kcat · Km^-1 of the binder BLAP variant M131 (S3T + V4I + A188P + V193M + V199I) (enzyme) AQTIPWGISRVQAPAAHNRGLTGSGVKVAVLDTGISTHPDLNIRGGASFVPGEPSTQDGNGHGTHVAGTIAALNNSIGVLGVAPSAELYAVKVLGADGRGAISSIAQGLEWAGNNGMHVANLSLGSPSPSATLEQAVNSATSRGVLVVAASGNSGASSISYPARYANAMAVGATDQNNNRASFSQYGPGLDIMAPGVNIQSTYPGSTYASLNGTSMATPHVAGAAALVKQKNPSWSNVQIRNHLKNTATSLGSTNLYGSGLVNAEAATR was 156000
